Source of measurements: paper PMC8745178

target: UniProt P35218; assay: fluorescent thermal shift assay (FTSA), CAVA; format: binding; conditions: converted from Kd_intr, 37 °C, independent of pH
Sequence (P35218 39-305): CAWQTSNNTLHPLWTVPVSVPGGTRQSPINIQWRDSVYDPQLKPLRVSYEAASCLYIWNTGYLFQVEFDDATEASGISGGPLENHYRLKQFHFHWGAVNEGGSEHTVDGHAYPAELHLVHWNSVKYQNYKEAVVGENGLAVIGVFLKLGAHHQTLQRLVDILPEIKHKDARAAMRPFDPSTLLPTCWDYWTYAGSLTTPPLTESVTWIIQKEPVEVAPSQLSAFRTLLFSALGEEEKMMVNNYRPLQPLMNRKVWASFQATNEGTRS
recorded-metric: ΔGintr CAVA (kcal/mol)
Report as a plain number; the unit kcal/mol is understood.

Q: Look up ΔGintr CAVA for this compound: `COC(=O)c1cc(S(N)(=O)=O)c(Cl)cc1S(=O)(=O)C1CCCCC1`
Ans: -10.9

Q: Now the compound `COC(=O)c1cc(S(N)(=O)=O)c(SC2CCCCC2)cc1Cl`
Ans: -9.61

Q: Now the compound `COC(=O)c1cc(S(N)(=O)=O)c(Cl)cc1Sc1cccc2ccccc12`
Ans: -9.37

Q: Now the compound `COC(=O)c1cc(S(N)(=O)=O)c(S(=O)(=O)C2CCCCC2)cc1Cl`
Ans: -9.89

----------
target: CAXIII (Homo sapiens); assay: fluorescent thermal shift assay (FTSA), CAXIII; type: binding; conditions: converted from Kd_intr, 37 °C, independent of pH
Sequence (Q8N1Q1 whole entry): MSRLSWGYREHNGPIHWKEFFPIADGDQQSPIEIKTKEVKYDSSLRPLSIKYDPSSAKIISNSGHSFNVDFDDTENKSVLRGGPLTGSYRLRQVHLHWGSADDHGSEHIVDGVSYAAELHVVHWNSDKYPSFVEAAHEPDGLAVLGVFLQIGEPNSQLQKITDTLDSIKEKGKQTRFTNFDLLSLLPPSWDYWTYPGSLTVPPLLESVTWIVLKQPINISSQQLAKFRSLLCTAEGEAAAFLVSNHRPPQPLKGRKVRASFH
I'd be grateful if you could share measured ΔGintr CAXIII for these entries.
Report as a plain number; the unit kcal/mol is understood.

Q: Look up ΔGintr CAXIII for this compound: `COC(=O)c1cc(S(N)(=O)=O)c(Br)cc1Sc1ccccc1`
Ans: -14.5

Q: Now the compound `COC(=O)c1cc(S(N)(=O)=O)c(Cl)cc1S(=O)(=O)C1CCCCC1`
Ans: -14

Q: Now the compound COC(=O)c1cc(S(N)(=O)=O)c(Br)cc1S(=O)(=O)c1ccccc1 [Compound 10a]
Ans: -13.9

Q: Now the compound `COC(=O)c1cc(S(N)(=O)=O)c(Cl)cc1SC1CCCCC1`
Ans: -14.8

Q: Now the compound `COC(=O)c1cc(S(N)(=O)=O)c(Cl)cc1S(=O)(=O)c1cccc2ccccc12`
Ans: -14.7

Q: Now the compound `COC(=O)c1cc(S(N)(=O)=O)c(SCc2ccccc2)cc1Cl`
Ans: -14.1

Q: Now the compound `COC(=O)c1cc(S(N)(=O)=O)c(S(=O)(=O)Cc2ccccc2)cc1Cl`
Ans: -9.51

Q: Now the compound `COC(=O)c1cc(S(N)(=O)=O)c(S(=O)(=O)C2CCCCC2)cc1Br`
Ans: -10.1

Q: Now the compound `COC(=O)c1cc(S(N)(=O)=O)c(SC2CCCCCCCCCCC2)cc1Cl`
Ans: -14.5

Q: Now the compound `COC(=O)c1cc(S(N)(=O)=O)c(Cl)cc1Sc1cccc2ccccc12`
Ans: -13.7

Q: Now the compound COC(=O)c1cc(S(N)(=O)=O)c(Br)cc1Br [Compound 2, Methyl 2,4-dibromo-5-sulfamoyl-benzoate]
Ans: -12.8

Q: Now the compound `COC(=O)c1cc(S(N)(=O)=O)c(Cl)cc1S(=O)(=O)Cc1ccccc1`
Ans: -13.6

Q: Now the compound `COC(=O)c1cc(S(N)(=O)=O)c(SC2CCCCC2)cc1Br`
Ans: -14.4

Q: Now the compound `COC(=O)c1cc(S(N)(=O)=O)c(Cl)cc1SCc1ccccc1`
Ans: -13.4

Q: Now the compound `COC(=O)c1cc(S(N)(=O)=O)c(Cl)cc1S(=O)(=O)CCc1ccccc1`
Ans: -14.2

Q: Now the compound `COC(=O)c1cc(S(N)(=O)=O)c(Cl)cc1SCCc1ccccc1`
Ans: -14.9

Q: Now the compound `COC(=O)c1cc(S(N)(=O)=O)c(S(=O)(=O)CCc2ccccc2)cc1Cl`
Ans: -10.6

Q: Now the compound `COC(=O)c1cc(S(N)(=O)=O)c(SC2CCCCC2)cc1Cl`
Ans: -14.1

----------
I'd be grateful if you could share measured ΔGintr CAVI for these entries.
biological target: CAVI (Homo sapiens, UniProt P23280); experiment: fluorescent thermal shift assay (FTSA), CAVI; type: binding; conditions: converted from Kd_intr, 37 °C, independent of pH
Sequence (P23280 18-308): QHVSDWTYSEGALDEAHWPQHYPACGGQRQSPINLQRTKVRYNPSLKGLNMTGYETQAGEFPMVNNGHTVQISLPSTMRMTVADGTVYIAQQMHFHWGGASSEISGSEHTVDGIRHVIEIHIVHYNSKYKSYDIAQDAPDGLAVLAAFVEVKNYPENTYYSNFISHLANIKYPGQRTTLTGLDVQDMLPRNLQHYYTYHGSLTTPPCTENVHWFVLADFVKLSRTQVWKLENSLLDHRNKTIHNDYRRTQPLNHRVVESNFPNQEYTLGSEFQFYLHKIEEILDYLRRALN
Report as a plain number; the unit kcal/mol is understood.

Q: Look up ΔGintr CAVI for this compound: `COC(=O)c1cc(S(N)(=O)=O)c(SCc2ccccc2)cc1Cl`
Ans: -14.2

Q: Now the compound `COC(=O)c1cc(S(N)(=O)=O)c(Cl)cc1S(=O)(=O)Cc1ccccc1`
Ans: -14.3

Q: Now the compound `COC(=O)c1cc(S(N)(=O)=O)c(Cl)cc1S(=O)(=O)c1ccccc1`
Ans: -13.5

Q: Now the compound `COC(=O)c1cc(S(N)(=O)=O)c(SCCc2ccccc2)cc1Cl`
Ans: -14

----------
molecular target: CAXII (Homo sapiens, UniProt O43570); details: observed, sodium phosphate buffer pH 7.0, 37 °C, ITC
Sequence (O43570 25-354): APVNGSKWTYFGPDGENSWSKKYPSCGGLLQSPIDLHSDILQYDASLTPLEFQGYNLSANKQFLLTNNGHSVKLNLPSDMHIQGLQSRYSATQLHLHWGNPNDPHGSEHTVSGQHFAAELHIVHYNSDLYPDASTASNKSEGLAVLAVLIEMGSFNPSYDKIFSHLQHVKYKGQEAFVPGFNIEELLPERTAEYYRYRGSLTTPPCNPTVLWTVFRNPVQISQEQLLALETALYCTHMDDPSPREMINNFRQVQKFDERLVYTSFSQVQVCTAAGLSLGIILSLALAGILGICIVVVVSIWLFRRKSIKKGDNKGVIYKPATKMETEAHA
recorded-metric: ΔHobs CAXII (kcal/mol)
Report as a plain number; the unit kcal/mol is understood.

Q: Give recorded ΔHobs CAXII with CAXII (Homo sapiens, UniProt O43570) for the following compound: COC(=O)c1cc(S(N)(=O)=O)c(SCCc2ccccc2)cc1Cl [Compound 3d]
Ans: -6.19

Q: Now the compound COC(=O)c1cc(S(N)(=O)=O)c(Cl)cc1S(=O)(=O)c1ccccc1 [Compound 9a]
Ans: -6.55

Q: Now the compound COC(=O)c1cc(S(N)(=O)=O)c(SC2CCCCC2)cc1Cl [Compound 3b]
Ans: -6.96

Q: Now the compound COC(=O)c1cc(S(N)(=O)=O)c(Cl)cc1SC1CCCCC1 [Compound 5b]
Ans: -6.5

----------
biological target: CAXII (Homo sapiens); assay: fluorescent thermal shift assay (FTSA), CAXII; assay type: binding; settings: converted from Kd_obs, 37 °C, pH 7.0, FTSA
Binary call on ΔGobs CAXII: rule met from -9 kcal/mol upward, rule not met beneath that.

Q: Hi team, for `COC(=O)c1cc(S(N)(=O)=O)c(Cl)cc1S(=O)(=O)Cc1ccccc1` , is the recorded ΔGobs CAXII at or above -9 kcal/mol?
Ans: rule not met

Q: Now the compound `COC(=O)c1cc(S(N)(=O)=O)c(S(=O)(=O)CCc2ccccc2)cc1Cl`
Ans: rule met

Q: Now the compound `COC(=O)c1cc(S(N)(=O)=O)c(S(=O)(=O)C2CCCCC2)cc1Cl`
Ans: rule met

Q: Now the compound `COC(=O)c1cc(S(N)(=O)=O)c(Cl)cc1S(=O)(=O)c1cccc2ccccc12`
Ans: rule not met

Q: Now the compound `COC(=O)c1cc(S(N)(=O)=O)c(S(=O)(=O)C2CCCCC2)cc1Br`
Ans: rule met

----------
target: CAVII (Homo sapiens); assay: fluorescent thermal shift assay (FTSA), CAVII; format: binding; conditions: converted from Kd_obs, 37 °C, pH 7.0, FTSA
Sequence (P43166 whole entry): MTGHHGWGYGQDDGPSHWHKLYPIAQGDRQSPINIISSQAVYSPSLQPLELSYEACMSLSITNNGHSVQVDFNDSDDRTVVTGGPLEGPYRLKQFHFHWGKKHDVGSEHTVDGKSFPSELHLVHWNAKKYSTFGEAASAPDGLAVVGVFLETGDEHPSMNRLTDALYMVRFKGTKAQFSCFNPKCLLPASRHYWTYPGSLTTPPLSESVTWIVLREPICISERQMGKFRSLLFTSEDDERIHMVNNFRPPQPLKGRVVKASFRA
recorded-metric: ΔGobs CAVII (kcal/mol)
Report as a plain number; the unit kcal/mol is understood.

Q: Look up ΔGobs CAVII for this compound: COC(=O)c1cc(S(N)(=O)=O)c(Cl)cc1SCCc1ccccc1 [Compound 5d]
Ans: -10.8

Q: Now the compound COC(=O)c1cc(S(N)(=O)=O)c(Cl)cc1S(=O)(=O)Cc1ccccc1 [Compound 9c]
Ans: -12.2

Q: Now the compound COC(=O)c1cc(S(N)(=O)=O)c(Cl)cc1S(=O)(=O)C1CCCCC1 [Compound 9b]
Ans: -13.8

----------
molecular target: CAII (Homo sapiens); test: fluorescent thermal shift assay (FTSA), CAII; type: binding; conditions: converted from Kd_intr, 37 °C, independent of pH
recorded-metric: ΔGintr CAII

Q: Look up ΔGintr CAII for this compound: `COC(=O)c1cc(S(N)(=O)=O)c(S(=O)(=O)C2CCCCC2)cc1Cl`
Ans: -10.6 kcal/mol

Q: Now the compound `COC(=O)c1cc(S(N)(=O)=O)c(Cl)cc1SCc1ccccc1`
Ans: -14.5 kcal/mol

Q: Now the compound `COC(=O)c1cc(S(N)(=O)=O)c(SC2CCCCC2)cc1Cl`
Ans: -13.6 kcal/mol

Q: Now the compound `COC(=O)c1cc(S(N)(=O)=O)c(SCCc2ccccc2)cc1Cl`
Ans: -13.8 kcal/mol

Q: Now the compound `COC(=O)c1cc(S(N)(=O)=O)c(Br)cc1Sc1ccccc1`
Ans: -14 kcal/mol

Q: Now the compound COC(=O)c1cc(S(N)(=O)=O)c(Br)cc1S(=O)(=O)c1ccccc1 [Compound 10a]
Ans: -14.8 kcal/mol

----------
target: UniProtKB Q8N1Q1; test: fluorescent thermal shift assay (FTSA), CAXIII; type: binding; conditions: converted from Kd_obs, 37 °C, pH 7.0, FTSA
I'd be grateful if you could share measured ΔGobs CAXIII for these entries.
Report as a plain number; the unit kcal/mol is understood.

Q: Give recorded ΔGobs CAXIII with UniProtKB Q8N1Q1 for the following compound: COC(=O)c1cc(S(N)(=O)=O)c(S(=O)(=O)C2CCCCC2)cc1Br [Compound 8b]
Ans: -5.88

Q: Now the compound COC(=O)c1cc(S(N)(=O)=O)c(Br)cc1Sc1ccccc1 [Compound 6a]
Ans: -11.1

Q: Now the compound COC(=O)c1cc(S(N)(=O)=O)c(S(=O)(=O)Cc2ccccc2)cc1Cl [Compound 7c]
Ans: -5.47

Q: Now the compound COC(=O)c1cc(S(N)(=O)=O)c(SCCc2ccccc2)cc1Cl [Compound 3d]
Ans: -10.5

Q: Now the compound COC(=O)c1cc(S(N)(=O)=O)c(Br)cc1S(=O)(=O)c1ccccc1 [Compound 10a]
Ans: -11.9

Q: Now the compound COC(=O)c1cc(S(N)(=O)=O)c(SCc2ccccc2)cc1Cl [Compound 3c]
Ans: -10.5

Q: Now the compound COC(=O)c1cc(S(N)(=O)=O)c(S(=O)(=O)C2CCCCC2)cc1Cl [Compound 7b]
Ans: -5.9

Q: Now the compound COC(=O)c1cc(S(N)(=O)=O)c(Cl)cc1Cl [Compound 1, Methyl 2,4-dichloro-5-sulfamoyl-benzoate]
Ans: -10

Q: Now the compound COC(=O)c1cc(S(N)(=O)=O)c(Cl)cc1S(=O)(=O)Cc1ccccc1 [Compound 9c]
Ans: -11.8

Q: Now the compound COC(=O)c1cc(S(N)(=O)=O)c(Cl)cc1S(=O)(=O)CCc1ccccc1 [Compound 9d]
Ans: -12.1

Q: Now the compound COC(=O)c1cc(S(N)(=O)=O)c(SC2CCCCC2)cc1Cl [Compound 3b]
Ans: -10.3

Q: Now the compound COC(=O)c1cc(S(N)(=O)=O)c(SC2CCCCC2)cc1Br [Compound 4b]
Ans: -10.6

Q: Now the compound COC(=O)c1cc(S(N)(=O)=O)c(Cl)cc1Sc1cccc2ccccc12 [Compound 5f]
Ans: -10.3

Q: Now the compound COC(=O)c1cc(S(N)(=O)=O)c(Cl)cc1Sc1ccccc1 [Compound 5a]
Ans: -10.9

Q: Now the compound COC(=O)c1cc(S(N)(=O)=O)c(Cl)cc1S(=O)(=O)C1CCCCC1 [Compound 9b]
Ans: -12.1

Q: Now the compound COC(=O)c1cc(S(N)(=O)=O)c(Cl)cc1SC1CCCCC1 [Compound 5b]
Ans: -11.4

Q: Now the compound COC(=O)c1cc(S(N)(=O)=O)c(SC2CCCCCCCCCCC2)cc1Cl [Compound 3e]
Ans: -10.8

Q: Now the compound COC(=O)c1cc(S(N)(=O)=O)c(Cl)cc1S(=O)(=O)c1ccccc1 [Compound 9a]
Ans: -11.7

Q: Now the compound COC(=O)c1cc(S(N)(=O)=O)c(Cl)cc1S(=O)(=O)c1cccc2ccccc12 [Compound 9f]
Ans: -12.6

Q: Now the compound COC(=O)c1cc(S(N)(=O)=O)c(Br)cc1Br [Compound 2, Methyl 2,4-dibromo-5-sulfamoyl-benzoate]
Ans: -10.2

Q: Now the compound COC(=O)c1cc(S(N)(=O)=O)c(S(=O)(=O)CCc2ccccc2)cc1Cl [Compound 7d]
Ans: -6.6

Q: Now the compound COC(=O)c1cc(S(N)(=O)=O)c(Cl)cc1SCCc1ccccc1 [Compound 5d]
Ans: -11.5

Q: Now the compound COC(=O)c1cc(S(N)(=O)=O)c(Cl)cc1SCc1ccccc1 [Compound 5c]
Ans: -9.94
